# TARGET_DESC: Peroxisome proliferator-activated receptor gamma (Homo sapiens)
# PROTOCOL_DETAILS: ATG_PPARg_TRANS: Attagene TRANS-FACTORIAL HepG2 Assay for human Peroxisome Proliferator-activated Receptor-gamma (PPARg) (AID 2283007)
Inconclusive results are not listed. Calls of active or inactive are those of the source. The calls were made as follows: active = hit-call score of the fitted dose curve at least 0.9, where 1 is the maximum; inconclusive = response in the unintended direction; inactive = score below 0.9.
Possible outcomes: active, inactive

>>> discrete_label("Clc1ccc(C(c2ccccc2Cl)C(Cl)Cl)cc1 (configuration not stated)")
"inactive"
>>> discrete_label("COC(=O)c1ccc(OC)cc1")
"inactive"
>>> discrete_label("CCCCCCCCc1ccc(S(=O)(=O)O)cc1")
"active"
>>> discrete_label("O=[N+]([O-])c1ccc(O)cc1C(F)(F)F")
"active"
>>> discrete_label("CCCC(=O)C(CC)Sc1ccoc1C (configuration not stated)")
"active"
>>> discrete_label("OCC#CCO")
"inactive"
>>> discrete_label("O=C1OC2(c3ccccc31)c1ccc(O)c(Br)c1Oc1c2ccc(O)c1Br")
"inactive"

----------
# TARGET_DESC: human Retinoid X Receptor beta (RXRb), RXRB (gene 6257) (UniProt P28702)
# Sequence (P28702 whole entry, looked up): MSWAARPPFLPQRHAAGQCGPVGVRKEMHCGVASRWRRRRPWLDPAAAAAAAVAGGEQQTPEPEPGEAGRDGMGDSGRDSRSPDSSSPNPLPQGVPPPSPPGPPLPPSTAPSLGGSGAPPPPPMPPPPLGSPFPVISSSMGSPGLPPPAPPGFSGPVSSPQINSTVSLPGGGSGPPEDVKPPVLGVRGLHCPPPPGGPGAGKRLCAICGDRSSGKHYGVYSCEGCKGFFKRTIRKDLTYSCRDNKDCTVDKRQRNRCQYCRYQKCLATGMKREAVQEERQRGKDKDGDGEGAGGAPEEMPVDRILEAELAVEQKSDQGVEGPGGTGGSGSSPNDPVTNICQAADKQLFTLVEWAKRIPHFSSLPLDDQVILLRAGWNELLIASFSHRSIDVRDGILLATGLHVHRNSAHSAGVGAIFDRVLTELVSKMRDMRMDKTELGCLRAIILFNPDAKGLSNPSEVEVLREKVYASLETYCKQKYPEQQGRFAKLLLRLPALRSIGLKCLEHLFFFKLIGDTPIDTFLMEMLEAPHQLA
# PROTOCOL_DETAILS: ATG_RXRb_TRANS: Attagene TRANS-FACTORIAL HepG2 Assay for human Retinoid X Receptor beta (RXRb) (AID 2283013)
Records with an inconclusive call do not appear. Activity calls are given as the source filed them. Rule for the calls: active = hit-call score of the fitted dose curve at least 0.9, where 1 is the maximum; inconclusive = response in the unintended direction; inactive = score below 0.9.
METRIC_NAME: AC50

>>> reported_measurement("CCCCCCCCCC(=O)OC")
"47 µM (active)"
>>> reported_measurement("CCOC(=O)[C@@H](C)Oc1ccc(Oc2nc3ccc(Cl)cc3o2)cc1")
"inactive"
>>> reported_measurement("COc1cc([C@@H]2c3cc4c(cc3[C@@H](O[C@@H]3O[C@@H]5CO[C@@H](C)O[C@H]5[C@H](O)[C@H]3O)[C@H]3COC(=O)[C@H]23)OCO4)cc(OC)c1O")
"inactive"
>>> reported_measurement("Nc1ccc(N)c2c1C(=O)c1ccccc1C2=O")
"inactive"
>>> reported_measurement("CCN(CCN)c1cccc(C)c1")
"inactive"
>>> reported_measurement("Brc1ccc(Br)c(Br)c1")
"137 µM (active)"
>>> reported_measurement("C[N+](C)(C)CCCCCC[N+](C)(C)C")
"inactive"
>>> reported_measurement("CC(C)CCCCCCCCCCCCCCC(=O)O")
"11.4 µM (active)"
>>> reported_measurement("CCc1ccc(O)c(OC)c1")
"inactive"
>>> reported_measurement("CC/C=C\\CC/C=C/CO")
"inactive"
>>> reported_measurement("O=C(O)c1ccc(O)cc1")
"inactive"
>>> reported_measurement("O=C(O)CCCCCCCCC(=O)O")
"inactive"
>>> reported_measurement("CCCCOC(=O)CCCCCCCC(=O)OCCCC")
"inactive"
>>> reported_measurement("Oc1c(Cl)cc(Cl)c(Cl)c1Cc1c(O)c(Cl)cc(Cl)c1Cl")
"12.7 µM (active)"
>>> reported_measurement("ON=C1CCCCC1")
"inactive"
>>> reported_measurement("CCCCC(CC)(CO)CO")
"inactive"
>>> reported_measurement("OCc1cccc(Oc2ccccc2)c1")
"100 µM (active)"
>>> reported_measurement("O=C(Nc1ccc([N+](=O)[O-])cc1)Nc1ccc([N+](=O)[O-])cc1 (tested in a mixture with another compound)")
"inactive"
>>> reported_measurement("Cc1ccc(C)o1")
"inactive"
>>> reported_measurement("Nc1ccccc1[N+](=O)[O-]")
"inactive"
>>> reported_measurement("CC(=O)NCCO")
"inactive"
>>> reported_measurement("CCC(Cl)C(Cl)C(Cl)CC(Cl)C(Cl)C(C)Cl (centres undefined)")
"16.4 µM (active)"
>>> reported_measurement("CC(C)(C)c1ccc(C(=O)O)cc1")
"inactive"
>>> reported_measurement("CC(=O)Nc1ccc(C(=O)CCl)cc1")
"inactive"
>>> reported_measurement("N#Cc1ccc(CC(=O)c2cccc(C(F)(F)F)c2)cc1")
"5.99 µM (active)"
>>> reported_measurement("CCCCCCC(C)Nc1ccc(Nc2ccccc2)cc1 (centres undefined)")
"30.2 µM (active)"
>>> reported_measurement("CC1=CC[C@@]23C[C@@H]1C(C)(C)[C@@H]2CC[C@H]3C")
"58.9 µM (active)"
>>> reported_measurement("CCCCCCCCCCCCS(=O)(=O)Cl")
"inactive"
>>> reported_measurement("CCOC(=O)CCc1ccccc1")
"inactive"
>>> reported_measurement("ClC(c1ccccc1)(c1ccccc1)c1ccccc1")
"inactive"
>>> reported_measurement("Cc1cc(S(=O)(=O)O)ccc1N=Nc1c(O)ccc2ccccc12")
"inactive"
>>> reported_measurement("C/C=C(\\C)C(=O)OCCc1ccccc1")
"inactive"
>>> reported_measurement("CCCC(C)=O")
"inactive"
>>> reported_measurement("O=C(O)c1cccnc1C(=O)O")
"inactive"
>>> reported_measurement("CC=Cc1ccc(OC)c(OC)c1")
"inactive"
>>> reported_measurement("CCCCCCCCSCCO")
"inactive"
>>> reported_measurement("CCCCCCCCCCCCCCCC(=O)OC/C=C(C)/C=C/C=C(C)/C=C/C1=C(C)CCCC1(C)C")
"inactive"
>>> reported_measurement("CCCCCC(C=O)=Cc1ccccc1")
"73.8 µM (active)"
>>> reported_measurement("C=COCCOCCOC=C")
"inactive"
>>> reported_measurement("CCCCCCC(CO)CCCC (centres undefined)")
"54.8 µM (active)"
>>> reported_measurement("Nc1ccc2c(O)cc(S(=O)(=O)O)cc2c1")
"inactive"
>>> reported_measurement("C=C(CC(=O)O)C(=O)O")
"inactive"
>>> reported_measurement("CCCSc1ccc2nc(NC(=O)OC)[nH]c2c1")
"inactive"
>>> reported_measurement("COc1cc(Cl)c(OC)cc1N")
"inactive"
>>> reported_measurement("CS(=O)(=O)OCCCCOS(C)(=O)=O")
"inactive"
>>> reported_measurement("Cc1cccc(Nc2ccccc2)c1")
"28 µM (active)"
>>> reported_measurement("CCCC(=O)C(CC)Sc1ccoc1C (centres undefined)")
"46.1 µM (active)"
>>> reported_measurement("[O-]n1ccccc1=S.[O-]n1ccccc1=S.[Zn+2]")
"inactive"
>>> reported_measurement("CCCCCCCC/C=C\\CCCCCCCC(=O)OCC")
"inactive"
>>> reported_measurement("NC(=S)NNC(N)=S")
"inactive"
>>> reported_measurement("CCCCCC(C)=O")
"inactive"
>>> reported_measurement("O=P(O)(O)O")
"inactive"
>>> reported_measurement("C=CC(C)(O)CCC=C(C)C (centres undefined)")
"inactive"
>>> reported_measurement("CN(C)C(=S)SC(=S)N(C)C")
"inactive"
>>> reported_measurement("COS(=O)(=O)O")
"inactive"
>>> reported_measurement("CC(=O)OCCCc1ccccc1")
"inactive"
>>> reported_measurement("COc1ccc(N)c([N+](=O)[O-])c1")
"inactive"
>>> reported_measurement("CC(C)c1ccccc1O")
"75.5 µM (active)"
>>> reported_measurement("C=C(C)[C@@H]1CC=C(C)C(=O)C1")
"inactive"

----------
# TARGET_DESC: Nuclear respiratory factor 1 (Homo sapiens) (UniProt Q16656)
# Sequence (Q16656 whole entry, looked up): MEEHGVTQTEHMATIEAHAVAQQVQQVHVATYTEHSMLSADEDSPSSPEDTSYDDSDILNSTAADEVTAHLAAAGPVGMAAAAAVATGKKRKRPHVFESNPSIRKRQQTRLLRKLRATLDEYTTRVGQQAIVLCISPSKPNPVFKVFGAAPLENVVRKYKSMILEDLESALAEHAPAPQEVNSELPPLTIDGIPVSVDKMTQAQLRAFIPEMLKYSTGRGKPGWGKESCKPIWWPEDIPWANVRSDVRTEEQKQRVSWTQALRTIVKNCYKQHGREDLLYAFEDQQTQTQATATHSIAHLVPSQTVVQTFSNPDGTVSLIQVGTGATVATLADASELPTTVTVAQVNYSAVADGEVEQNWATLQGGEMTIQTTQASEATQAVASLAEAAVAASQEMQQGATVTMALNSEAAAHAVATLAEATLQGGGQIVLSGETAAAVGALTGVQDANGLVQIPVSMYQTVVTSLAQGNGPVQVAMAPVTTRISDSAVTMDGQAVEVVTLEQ
# PROTOCOL_DETAILS: ATG_NRF1_CIS: Attagene CIS-FACTORIAL HepG2 Assay for human Nuclear Respiratory Factor 1 (NRF1) Orphan Gene (AID 2282987)
# PARTICULARS: HepG2 NRF1 cis-element reporter, Attagene multiplex; actives raise or lower the signal
The source made the active and inactive calls. The calls were made as follows: active = hit-call score of the fitted dose curve at least 0.9, where 1 is the maximum; inactive = score below 0.9.
METRIC_NAME: outcome

>>> reported_measurement("CCOc1ccc(N=Nc2ccc(C=Cc3ccc(N=Nc4ccc(OCC)cc4)cc3S(=O)(=O)O)c(S(=O)(=O)O)c2)cc1")
"inactive"
>>> reported_measurement("CCCC[O][Al]([O]CCCC)[O]CCCC")
"inactive"
>>> reported_measurement("C=COCCOCCOC=C")
"inactive"
>>> reported_measurement("CC/C=C\\CCOC(=O)CC")
"inactive"
>>> reported_measurement("FC(F)(F)COCC(F)(F)F")
"inactive"
>>> reported_measurement("O=C1OC(=O)c2c(Br)c(Br)c(Br)c(Br)c21")
"inactive"
>>> reported_measurement("COc1ccc(CCO)cc1")
"inactive"
>>> reported_measurement("CC(=O)c1ccccn1")
"inactive"
>>> reported_measurement("CC=CC=CCOC(=O)C(C)C")
"inactive"
>>> reported_measurement("O=c1c(O)c(-c2ccc(O)cc2)oc2cc(O)cc(O)c12")
"inactive"
>>> reported_measurement("OCc1cccc(Oc2ccccc2)c1")
"inactive"
>>> reported_measurement("C=C(CC(=O)O)C(=O)O")
"inactive"
>>> reported_measurement("C#CC(C)(O)CC(C)C (centres undefined)")
"inactive"
>>> reported_measurement("N[C@@H](Cc1cc(I)c(Oc2cc(I)c(O)c(I)c2)c(I)c1)C(=O)O")
"inactive"

Sourced from PubChem BioAssay (EPA / NIEHS)
